# Tested on: Plasmodium berghei
# Experiment summary: Screen against P. berghei liver stage (PbLuc), transformed with Luciferase, at 2uM
# Format: functional, HepG2
# Experimental context: tested at 2 uM
Among all 68,000 compounds or so, about 2,700 (4%) showed an effect of 50% or more. This excerpt belongs to a sample that is enriched for strong results.
Kindly state INHIBITION for each of the entries shown.
Numbers only, in %.

Please review the entries below; each comes with its answer.
| Compound | Test system | Result units | INHIBITION |
| --- | --- | --- | --- |
| c1ccc(CN2CCNCC(Cc3cnccn3)C2)cc1 (stereo not given) | Plasmodium berghei | % | 6.19 |
| CCCS(=O)(=O)N1CCC2(CC1)CCn1c(-c3cnn(C)c3)cnc12 | Plasmodium berghei | % | 18.05 |
| CN(Cc1ccco1)C[C@H]1OC[C@@H]2CCN(Cc3cccs3)C[C@@H]21 | Plasmodium berghei | % | -2.83 |

Give INHIBITION for each listed item.
1. CN(Cc1ccco1)C[C@H]1OC[C@@H]2CCN(Cc3nccs3)C[C@@H]21
2. O=C(NC[C@H]1OC[C@@H]2CN(Cc3ccco3)CC[C@@H]21)c1cscn1
3. Cc1cc(S(=O)(=O)Nc2onc(C)c2C)sc1C

OUT:
[-13.27, 66.46, 36.28]

Give INHIBITION for each listed item.
1. Cn1cc(C(=O)NC[C@@H]2OC[C@H]3CN(Cc4ccco4)CC[C@H]32)cn1
2. CN(Cc1cccnc1)C[C@@H]1OC[C@H]2CN(Cc3ccco3)CC[C@H]21
3. CN(C)C[C@@H]1OC[C@H]2CN(Cc3ccoc3)CC[C@H]21
4. CN(Cc1ccco1)C[C@H]1OC[C@@H]2CCN(Cc3ccsc3)C[C@@H]21

OUT:
1. -33.95
2. 10.53
3. 0.13
4. 22.89

* * *

# Test system: Plasmodium berghei
# Experiment summary: Screen against P. berghei liver stage (PbLuc), transformed with Luciferase, at 2uM
# Type: functional, HepG2
# Experimental context: tested at 2 uM
Among all 68,000 compounds or so, about 2,700 (4%) showed an effect of 50% or more. This is one part of a sample in which strong results are shown more often than they occur.
Assay metric: INHIBITION (%)
Answers are plain numbers, in %.

Please review the entries below; each comes with its answer.
| Compound | Result |
| --- | --- |
| CC(C)c1nc(C2CCCN(C(=O)CCn3ccccc3=O)C2)no1 (centres undefined) | 29.59 |
| O=c1cc(N2CCCC2)cnn1CC(F)F | 18.81 |
| CCc1nc(C2CCCN(C(=O)CCn3ccccc3=O)C2)no1 (centres undefined) | 54.92 |
| CC(C)C(=O)N1CCCC(Cc2ncccn2)C1 (centres undefined) | -24.73 |

Give INHIBITION for each listed item.
1. COc1cccc2c1OCC(C(=O)N(Cc1ccncc1)CC(C)C)C2 (centres undefined)
2. CCOc1cc(C(=O)N2CCCC(c3noc(C(C)C)n3)C2)ccn1 (centres undefined)
3. COc1ncccc1CN1CCn2c(Cn3cncn3)cnc2C1
4. COc1cccc2c1OCC(C(=O)NCCn1nc(C)c(Cl)c1C)C2 (centres undefined)
5. N#Cc1ccc(OC2CCN(CC(=O)NCC3CCCO3)CC2)cc1 (centres undefined)
6. COc1cc(Cl)ccc1CNC(=O)N(C)C(C)CS(C)(=O)=O (centres undefined)
7. CCc1nc(C2CCCN(C(=O)c3ccc4[nH]nnc4c3)C2)no1 (centres undefined)
8. CCc1nc(CC2CN(c3ncnc4nc(C)cc(C)c34)CCO2)no1 (centres undefined)

OUT:
1: 17.2; 2: 64.16; 3: -47.72; 4: 24.36; 5: -27.4; 6: -22.82; 7: 38.72; 8: 5.1

Give INHIBITION for each listed item.
1. CCN(Cc1ccncc1)C(=O)C1COc2c(cccc2OC)C1 (centres undefined)
2. CCc1nc(C2CCCN(C(=O)c3ccc(OC(C)C)nc3)C2)no1 (centres undefined)
3. CCOc1cc(C(=O)N2CCCC(c3noc(CC)n3)C2)ccn1 (centres undefined)
4. CS(=O)(=O)N1CC[C@]2(O)CCN(CCCC(=O)c3ccccc3)C[C@@H]2C1

OUT:
1. 57.75
2. 54.92
3. 43.79
4. -30.08

Give INHIBITION for each listed item.
1. COc1cccc2c1OCC(C(=O)N(C)CCCc1cnn(C)c1)C2 (centres undefined)
2. CCCn1nc(C)c(CNC(=O)C2COc3c(cccc3OC)C2)c1C (centres undefined)
3. CCS(=O)(=O)CC(C)N(C)C(=O)NCCc1cccc(F)c1F (centres undefined)
4. CCN(C(=O)NCCc1cccc(F)c1F)C(C)CS(C)(=O)=O (centres undefined)
5. CCc1nc(C2CCCN(C(=O)c3ccc(OC)cc3)C2)no1 (centres undefined)
6. CC(C)c1nc(C2CCCN(C(=O)c3ccc4[nH]cnc4c3)C2)no1 (centres undefined)

OUT:
1: 27.75; 2: 18.57; 3: -4.09; 4: 64.2; 5: 48.43; 6: 33.91

Give INHIBITION for each listed item.
1. CCc1nc(C2CCCN(C(=O)c3ccc(O)nc3)C2)no1 (centres undefined)
2. COc1cccc2c1OCC(C(=O)NCCCn1nc(C)c(Cl)c1C)C2 (centres undefined)

OUT:
1: 9.82; 2: 50.59

* * *

Kindly state INHIBITION for each of the entries shown.
# Test system: Plasmodium berghei
# Experiment summary: Screen against P. berghei liver stage (PbLuc), transformed with Luciferase, at 2uM
# Type: functional, HepG2
# Experimental context: tested at 2 uM
In all, about 68,000 compounds went through this assay and about 2,700 (4%) showed an effect of 50% or more. What follows is part of a selection rich in strong results, with near analogues and random picks from the rest.
One number for each entry, in %.

| Molecule | Test system | Assay metric | Result |
| --- | --- | --- | --- |
| Cc1cccc(Cn2cc(C)c(N)n2)c1 | Plasmodium berghei | INHIBITION | 62.99 |
| CN(Cc1ccoc1)C(=O)C1CC(=O)N(Cc2ccncc2)C1 (stereo not given) | Plasmodium berghei | INHIBITION | 10.91 |

Give INHIBITION for each listed item.
1. Cc1nc(CN2CCCC(Cn3cc(CCO)nn3)C2)c2ccccn12 (stereo not given)
2. CCC(C)NC(=O)NCc1cc2n(n1)CCCN(C1CCCCC1)C2 (stereo not given)
3. O=C(NCCc1nnc2n1CCCCC2)N1CCC2(CCOC2)C1 (stereo not given)
4. CCOCCOC(C)C(=O)NCc1cn2cc(Br)ccc2n1 (stereo not given)
5. Cc1cccc(-c2ccc(C(=O)NCC3CCOC3)c(=O)[nH]2)c1 (stereo not given)

OUT:
-27.82
-15.12
69.67
-4.1
17.39

* * *

# Test system: Plasmodium berghei
# Experiment summary: Screen against P. berghei liver stage (PbLuc), transformed with Luciferase, at 2uM
# Assay type: functional, HepG2
# Experimental context: tested at 2 uM
In all, about 68,000 compounds went through this assay and about 2,700 (4%) showed an effect of 50% or more. Many of the other results were omitted from the sample, so strong results are more common in it than they were.
Assay metric: INHIBITION (%)
Numbers only, in %.

Please review the entries below; each comes with its answer.
| Compound | INHIBITION [%] |
| --- | --- |
| Cc1ccc(C(=O)N2C[C@@H](NS(C)(=O)=O)[C@H](C(C)C)C2)cc1O | 51.72 |
| CCc1[nH]c2c(CNC(=O)C3CCC(=O)NC3)cc(C)cc2c1C (stereo unspecified) | 11.37 |
| CCCc1cnc(C)nc1NCCc1nc(C)cc(=O)[nH]1 | 20.14 |
| CNS(=O)(=O)c1ccc(C(=O)NCCNc2ncccn2)cc1 | -75.02 |
| Cc1nc(-c2ccsc2)ccc1C(=O)NCCCN1CCOCC1 | -10.47 |

Give INHIBITION for each listed item.
1. Cc1nc(-c2ccsc2)ccc1C(=O)NC(C)CN1CCOCC1 (stereo unspecified)
2. O=C(COCCOc1ccccc1)NC1CCN(c2ccccn2)CC1

OUT:
50.75
21.79

* * *

# Test system: Plasmodium berghei
# Experiment summary: Screen against P. berghei liver stage (PbLuc), transformed with Luciferase, at 2uM
# Format: functional, HepG2
# Experimental context: tested at 2 uM
About 2,700 (4%) of roughly 68,000 compounds showed an effect of 50% or more. The sample as a whole holds a higher share of strong results than the screen did.
Mark yes for reported INHIBITION of 20% or greater; mark no for anything smaller.

| Molecule | Assigned label |
| --- | --- |
| CCOCc1nnc(NCc2ccsc2)o1 | no |
| Cc1ccc(CN2CCOC3(CCCN(c4cccc(F)c4)C3)C2)o1 (centres undefined) | yes |
| Cc1cc(CN2C[C@@H]3CN(C(=O)c4ccsc4)CCO[C@@H]3C2)no1 | no |
| OC1(CNc2ccc(F)cc2)CCNCC1 | no |

We now examine a further molecule.
IN: Hello, I need to know if CCN(CCNC(=O)C1CCCN(C(C)=O)C1)c1ccccc1C (centres undefined) has measured INHIBITION not below 20%. Thanks!
OUT: yes
